- run-description: Cmax in halothane anesthetized dog showing 100.9% increase in heart rate at 3 mg/kg/ml, iv measured after 30 mins
- Assay type: ADME, organism-based, Canis lupus familiaris
- Set-up: dose 3 mg/kg, route intravenous
- assay-setup: in vivo
observable: Cmax (µM)

INSERT INTO assay_data (compound_smiles, measured_number) VALUES
  ('CC(C)(C)Cc1cnc(CCc2ccc(-c3cccc(F)c3C(=O)O)cc2)n1CC(=O)O', 4.2),
  ('COC(=O)c1c(F)cccc1-c1ccc(CCc2ncc(CC(C)(C)C)n2CC(=O)O)cc1', 16.8);

====

The following compounds are shown together with reported Cmax values.
- run-description: Cmax in halothane anesthetized dog not showing increase in heart rate at 3 mg/kg/ml, iv measured after 30 mins
- Format: ADME, organism-based, Canis lupus familiaris
- Set-up: dose 3 mg/kg, route intravenous
- assay-setup: in vivo
observable: Cmax

INSERT INTO measurements (compound_smiles, result) VALUES
  ('CC(C)(C)Cc1cnc(CCc2ccc(-c3cccc(F)c3C(=O)O)cc2)n1CC(=O)O', '38.1 µM'),
  ('COC(=O)c1c(F)cccc1-c1ccc(CCc2ncc(CC(C)(C)C)n2CC(=O)O)cc1', '44.3 µM');

====

- run-description: Octanol-water distribution coefficient, log D of the compound in PBS buffer at pH 7.4
- Format: physicochemical
observable: logD

INSERT INTO measurements (compound_smiles, observable, inequality_sign, measured_number) VALUES
  ('COC(=O)c1c(F)cccc1-c1ccc(CCc2ncc(CC(C)(C)C)n2CC(=O)O)cc1', 'logD', '=', 2),
  ('CC(C)(C)Cc1cnc(CCc2ccc(-c3cccc(F)c3C(=O)O)cc2)n1CC(=O)O', 'logD', '<', -1.8);

====

The following compounds are shown together with reported Ratio values.
- run-description: Drug uptake in mouse plasma assessed as ratio of active compound to metabolite at 3 mg/kg, iv administered as infusion measured after 30 or 60 mins
- Type: ADME, organism-based
- assay-setup: in vivo, 1 h, pooled result: one value given for 2 cell lines, strains, targets or settings
observable: Ratio

INSERT INTO assay_data (compound_smiles, result) VALUES
  ('COC(=O)c1c(F)cccc1-c1ccc(CCc2ncc(CC(C)(C)C)n2CCNS(C)(=O)=O)cc1', 2.3),
  ('COC(=O)c1c(F)cccc1-c1ccc(CCc2ncc(CC(C)(C)C)n2CCC(=O)O)cc1', 1.3),
  ('COC(=O)c1c(F)cccc1-c1ccc(CCc2ncc(CC(C)(C)C)n2CC(=O)O)cc1', 1.31),
  ('COC(=O)c1c(F)cccc1-c1ccc(CCc2ncc(CC(C)(C)C)n2CCOc2cccc(O)c2)cc1', 2.49);

====

The following compounds are shown together with reported EC50 values.
- tgt: Bombesin receptor subtype-3 (Mus musculus)
- Sequence (O54798 whole entry): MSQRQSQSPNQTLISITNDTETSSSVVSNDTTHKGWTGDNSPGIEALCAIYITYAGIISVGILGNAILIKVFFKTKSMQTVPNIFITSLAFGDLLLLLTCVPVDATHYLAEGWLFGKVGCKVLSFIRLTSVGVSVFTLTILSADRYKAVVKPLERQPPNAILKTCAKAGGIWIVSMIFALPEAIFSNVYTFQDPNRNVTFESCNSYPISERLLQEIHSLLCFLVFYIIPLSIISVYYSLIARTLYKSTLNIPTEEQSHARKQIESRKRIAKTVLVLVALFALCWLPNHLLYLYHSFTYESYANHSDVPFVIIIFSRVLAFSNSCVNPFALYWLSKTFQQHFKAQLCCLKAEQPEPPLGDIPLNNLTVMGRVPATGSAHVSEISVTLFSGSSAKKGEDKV
- run-description: Agonist activity at mouse BRS3 expressed in CHOK1 cells measured after 1 hrs by IP-One HTRF assay
observable: EC50 (nM)

INSERT INTO assay_data (compound_smiles, observable, measured_number) VALUES
  ('CC(C)(C)Cc1cnc(CCc2ccc(-c3cccc(F)c3C(=O)O)cc2)n1CCOc1cccc(O)c1', 'EC50', 0.8),
  ('CC(C)(C)Cc1cnc(CCc2ccc(-c3cccc(F)c3C(=O)O)cc2)n1Cc1ccc(C(=O)O)cc1', 'EC50', 13),
  ('CCC(C)(C)Cc1cn(CC(=O)O)c(CCc2ccc(-c3ccccn3)cc2)n1', 'EC50', 1910),
  ('COC(=O)c1c(F)cccc1-c1ccc(CCc2ncc(CC(C)(C)C)n2CCOc2cccc(O)c2)cc1', 'EC50', 25),
  ('COC(=O)c1c(F)cccc1-c1ccc(CCc2ncc(CC(C)(C)C)n2CC(=O)O)cc1', 'EC50', 44),
  ('CC(C)(C)Cc1cnc(CCc2ccc(-c3ccccc3C(=O)O)cc2)n1CC(=O)O', 'EC50', 1270);
